# Tested on: Plasmodium falciparum
# PROTOCOL: Antimalarial activity against chloroquine-resistant and mefloquine-sensitive Plasmodium falciparum W2 ring stage form infected in human erythrocytes by spectrophotometric analysis
# Format: functional, organism-based
pIC50: −log10 of the molar value.
pIC50 listing for selected compounds.
MEASURED_PROPERTY: pIC50

>>> df
                           structure_string  modifier  recorded_number
0  FC(F)(F)c1cc(Nc2ccccc2C(F)(F)F)c2cccc(C(F)(F)F)c2n1         =             4.48
1  FC(F)(F)c1cc(N2CCOCC2)c2cccc(C(F)(F)F)c2n1         <             3.84
2  Fc1ccc(Nc2cc(C(F)(F)F)nc3c(C(F)(F)F)cccc23)cc1         =             4.80
3  FC(F)(F)c1cc(Nc2ccccc2)c2cccc(C(F)(F)F)c2n1         =             4.55
4  FC(F)(F)c1cc(Nc2ccc3ccccc3c2)c2cccc(C(F)(F)F)c2n1         =             5.02
5  Oc1ccc(Nc2cc(C(F)(F)F)nc3c(C(F)(F)F)cccc23)cc1         =             4.62
6  FC(F)(F)c1cc(Nc2ccccn2)c2cccc(C(F)(F)F)c2n1         =             4.71
7  Cc1nnc(Nc2cc(C(F)(F)F)nc3c(C(F)(F)F)cccc23)s1         =             5.74
